measurement protocol: in vivo
assay conditions: rat, in vivo, iv, 20 mg/kg, AUC CPT-11, phenobarbital pretreated, CPT-11 20 mg/kg, n = 2
Description: Of these 2 types of inducers, phenobarbital has been used as an […] and a mildly sedative agent in humans. The inventors' objective here was to investigate the effect of phenobarbital administration on the glucuronidation of SN-38 in rats. […] Data Analysis: The plasma concentration-time profile of the control and pretreated groups of rats were analyzed using non-compartmental methods (PCNONLIN, SCI, Lexington, Ky.). […]
measured property: AUC at 6 h (ng·h/mL)
Reply with just the number (in ng·h/mL).

Prompt: Given the entry CCc1c2c(nc3ccc(OC(=O)N4CCC(N5CCCCC5)CC4)cc13)-c1cc3c(c(=O)n1C2)COC(=O)[C@]3(O)CC , report its measured AUC at 6 h.
Completion: 3060
